Recorded yield (AAV titer in elution fraction vs. load) by entry
- subject.of.test: T1, AAV2 capsid (adeno-associated virus serotype 2, UniProt P03135 1-735; P03135 1-598; P03135 1-533)
- T1 construct: Whole assembled capsid, VP1:VP2:VP3 about 1:1:10; AF594-labelled in the library screen; GFP transgene in the lysate runs; a spherical cap of collated PDB structures in the docking; also called adeno-associated virus serotype 2
- test: bind-and-elute chromatography, pure AAV2; bound at pH 7.0, eluted with 1 M MgCl2 pH 6.0; ELISA
Where no end group is shown, it is not given here. Toyopearl AF‑Amino‑650M resin = chromatographic resin to which the peptide C-terminus is conjugated
property: yield (AAV titer in elution fraction vs. load)

{"binder": "KFNHWFG-{Toyopearl AF‑Amino‑650M resin} (Peptide immobilised on chromatographic resin; also called W1; KFNHWF-Toyopearl) [KFNHWFG-Toyopearl resin]", "value.reported": "45%"}
{"binder": "FWWAAFFKG-{Toyopearl AF‑Amino‑650M resin} (Peptide immobilised on chromatographic resin; also called W5) [FWWAAFFKG-Toyopearl resin]", "value.reported": "44.8%"}
{"binder": "IWWHIAKFG-{Toyopearl AF‑Amino‑650M resin} (Peptide immobilised on chromatographic resin; also called W3) [IWWHIAKFG-Toyopearl resin]", "value.reported": "54.9%"}
{"binder": "WKAHNKG-{Toyopearl AF‑Amino‑650M resin} (Peptide immobilised on chromatographic resin; also called W2) [WKAHNKG-Toyopearl resin]", "value.reported": "79.8%"}
